assay: Cytotoxicity against HEL cells assessed as alteration in cell morphology after 3 days by microscopic method; assay type: cell-based; conditions: human
Recorded MCC at 72 h for the following molecules

The reported MCC at 72 h of the molecule "CCCCCCn1nnc2c1CCN(c1ccc(C(F)(F)F)cc1)C2" was > 100 µM

----------
assay: Selectivity index, ratio of MCC for HEL cells to EC50 for Human adenovirus 2 infected in HEL cells; type: toxicity, cell-based; settings: read-out: Selectivity Index
// reported selectivity ratio for each item listed

See these solved cases before continuing.
{"compound": "CCCCCCCCn1nnc2c1C(Cc1ccccc1)(C(=O)OCC)CN(c1ccccc1)C2 (stereo not given)", "selectivity ratio": "> 8"}
{"compound": "CCOC(=O)C1(Cc2ccc(F)cc2)CN(c2ccccc2)Cc2nnn(Cc3cccc(F)c3)c21 (stereo not given)", "selectivity ratio": "> 8"}
{"compound": "Fc1ccc(N2CCc3c(nnn3CC(c3ccccc3)c3ccccc3)C2)cc1", "selectivity ratio": "> 8"}
{"compound": "CCOC(=O)C1(Cc2ccccc2)CN(c2ccccc2)Cc2nnn(CCc3cc4ccccc4[nH]3)c21 (stereo not given)", "selectivity ratio": "> 8"}
{"compound": "CCCCCCn1nnc2c1CCN(c1ccc(F)cc1)C2", "selectivity ratio": "> 8"}
{"compound": "CCOC(=O)C1(Cc2ccccc2)CN(c2ccccc2)Cc2nnn(Cc3c(F)cccc3Cl)c21 (stereo not given)", "selectivity ratio": "> 8"}
{"compound": "CCOC(=O)C1(Cc2ccccc2)CN(c2ccccc2)Cc2nnn(CCc3ccccc3OC)c21 (stereo not given)", "selectivity ratio": "> 8"}
{"compound": "COc1ccccc1CCn1nnc2c1CCN(c1ccccc1)C2", "selectivity ratio": "> 8"}

According to the records, this compound CCOC(=O)C1(Cc2ccccc2)CN(c2ccccc2)Cc2nnn(Cc3ccc(F)cc3)c21 (stereo not given) displays selectivity ratio of > 8

Consider CCOC(=O)C1(Cc2ccccc2)CN(c2ccccc2)Cc2nnn(Cc3ccccc3)c21 (stereo not given) . Its measured selectivity ratio is > 8

All figures here come from ChEMBL document CHEMBL4265975.
